Cited source for all entries: paper PMC3358478

Target: Human P450 1A1 (Homo sapiens, UniProt P04798)
Assay: Ethoxyresorufin O-deethylation
Type: biochemical
Settings: read-out: limiting Kinact on P450 1A1
ASSAY_METRIC: kinact (s⁻¹)

Need kinact, item `C#Cc1ccc2c(-c3ccccc3)c(C)c(=O)oc2c1`
0.00617

Repeat for the following molecule: `C#Cc1ccc2c(C)c(C)c(=O)oc2c1C`
0.00567

Repeat for the following molecule: `C#Cc1cc2oc(=O)ccc2cc1OC`
0.00567

(P) C#Cc1ccc2c(C)c(-c3ccccc3)c(=O)oc2c1
(Q) C#Cc1ccc2c(C)cc(=O)oc2c1
Identify the entry with the larger kinact. Options: P and Q Which one? Tell me its label.
P

* * *

Quick record: pIC50, UniProt:P00176.
Sequence (P00176 whole entry): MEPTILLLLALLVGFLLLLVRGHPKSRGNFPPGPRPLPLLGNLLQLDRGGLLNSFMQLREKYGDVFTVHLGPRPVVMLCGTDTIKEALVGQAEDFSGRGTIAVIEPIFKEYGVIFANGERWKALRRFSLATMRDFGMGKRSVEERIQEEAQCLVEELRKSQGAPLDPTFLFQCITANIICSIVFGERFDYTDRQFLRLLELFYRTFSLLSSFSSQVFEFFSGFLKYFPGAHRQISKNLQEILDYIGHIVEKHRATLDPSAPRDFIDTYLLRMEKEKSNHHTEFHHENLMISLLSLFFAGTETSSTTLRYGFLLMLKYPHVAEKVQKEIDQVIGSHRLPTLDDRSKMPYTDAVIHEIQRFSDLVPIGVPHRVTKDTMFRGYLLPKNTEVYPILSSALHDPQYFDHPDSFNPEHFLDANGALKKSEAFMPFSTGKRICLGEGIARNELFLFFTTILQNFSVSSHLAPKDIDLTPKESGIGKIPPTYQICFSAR
Expect pIC50 as a plain number equal to -log10 of the molar concentration.

Need pIC50, item `C#Cc1ccc2c(C(F)(F)F)cc(=O)oc2c1`
4.82

New cases:
Need pIC50, item `C#Cc1ccc2c(-c3ccccc3)c(C)c(=O)oc2c1`
5.04

* * *

Target sequence: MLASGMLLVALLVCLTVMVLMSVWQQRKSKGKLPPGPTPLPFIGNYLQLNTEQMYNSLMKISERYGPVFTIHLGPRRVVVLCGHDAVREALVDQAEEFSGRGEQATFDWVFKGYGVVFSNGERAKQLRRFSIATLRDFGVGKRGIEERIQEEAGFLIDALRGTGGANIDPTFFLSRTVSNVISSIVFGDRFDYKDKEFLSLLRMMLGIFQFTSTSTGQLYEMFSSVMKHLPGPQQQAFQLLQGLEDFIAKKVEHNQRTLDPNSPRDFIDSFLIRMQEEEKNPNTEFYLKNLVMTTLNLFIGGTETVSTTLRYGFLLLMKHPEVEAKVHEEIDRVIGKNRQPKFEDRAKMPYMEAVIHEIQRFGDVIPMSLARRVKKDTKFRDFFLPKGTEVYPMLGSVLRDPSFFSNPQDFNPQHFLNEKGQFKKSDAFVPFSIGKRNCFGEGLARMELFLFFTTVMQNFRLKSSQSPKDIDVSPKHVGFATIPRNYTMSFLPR
pIC50: −log10 of the molar value.
ASSAY_METRIC: pIC50

Solved entries:
Need pIC50, item C#Cc1ccc2cc(-c3ccccc3)c(=O)oc2c1 [7E3PC, 7-Ethynyl-3-phenylcoumarin]
< 4.30

Repeat for the following molecule: C#Cc1ccc2c(C)c(-c3ccccc3)c(=O)oc2c1 [7E4M3PC, 7-Ethynyl-4-methyl-3-phenylcoumarin]
< 4.30

New cases:
Need pIC50, item C#Cc1ccc2c(C)c(C)c(=O)oc2c1C [7ETMC, 7-Ethynyl-3,4,8-trimethylcoumarin]
< 4.30

Repeat for the following molecule: C#Cc1ccc2ccc(=O)oc2c1 [7EC, 7-Ethynylcoumarin]
< 4.30

* * *

pKi: −log10 of the molar value.
Quick record: pKi, Human P450 1A2 (Homo sapiens).
ASSAY_METRIC: pKi

Which measured pKi belongs to C#Cc1ccc2cc(-c3ccccc3)c(=O)oc2c1 [7E3PC, 7-Ethynyl-3-phenylcoumarin] , tested on Human P450 1A2 (Homo sapiens)?
6.19

(A) C#Cc1cc2oc(=O)ccc2cc1OC [7E6MOC, 7-Ethynyl-6-methoxycoumarin]
(B) C#Cc1ccc2c(C)c(-c3ccccc3)c(=O)oc2c1 [7E4M3PC, 7-Ethynyl-4-methyl-3-phenylcoumarin]
(C) C#Cc1ccc2c(C)cc(=O)oc2c1 [7E4MC, 7-Ethynyl-4-methylcoumarin]
Given 3 compounds, produce a descending ranking by pKi. The labels, placed in the requested order, form the answer.
B, C, A

* * *

Molecular target: Human P450 1A2 (Homo sapiens)
Sequence (P05177 1-516): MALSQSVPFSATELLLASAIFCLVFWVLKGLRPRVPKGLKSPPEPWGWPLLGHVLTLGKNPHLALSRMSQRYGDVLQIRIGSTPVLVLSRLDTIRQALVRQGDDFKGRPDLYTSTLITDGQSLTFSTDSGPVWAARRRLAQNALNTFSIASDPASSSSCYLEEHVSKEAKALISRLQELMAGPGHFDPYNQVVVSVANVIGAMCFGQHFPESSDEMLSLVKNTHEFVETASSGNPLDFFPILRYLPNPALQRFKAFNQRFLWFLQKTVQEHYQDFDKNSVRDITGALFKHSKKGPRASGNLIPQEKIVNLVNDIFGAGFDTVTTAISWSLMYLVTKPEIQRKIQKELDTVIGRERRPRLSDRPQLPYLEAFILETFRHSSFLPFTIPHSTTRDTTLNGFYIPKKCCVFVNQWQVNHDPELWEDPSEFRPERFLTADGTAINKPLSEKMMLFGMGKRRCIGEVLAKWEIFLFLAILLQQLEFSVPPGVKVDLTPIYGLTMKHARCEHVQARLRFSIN
ASSAY_METRIC: Ki (µM)

Need Ki, item `C#Cc1ccc2c(C(F)(F)F)cc(=O)oc2c1`
3.15

(a) C#Cc1ccc2c(C)c(C)c(=O)oc2c1C
(b) C#Cc1ccc2ccc(=O)oc2c1
In terms of reported Ki, does a or b have the smaller number? Which one? Tell me its label.
a
(a: 0.87 µM, b: 5.83 µM)

* * *

Target sequence: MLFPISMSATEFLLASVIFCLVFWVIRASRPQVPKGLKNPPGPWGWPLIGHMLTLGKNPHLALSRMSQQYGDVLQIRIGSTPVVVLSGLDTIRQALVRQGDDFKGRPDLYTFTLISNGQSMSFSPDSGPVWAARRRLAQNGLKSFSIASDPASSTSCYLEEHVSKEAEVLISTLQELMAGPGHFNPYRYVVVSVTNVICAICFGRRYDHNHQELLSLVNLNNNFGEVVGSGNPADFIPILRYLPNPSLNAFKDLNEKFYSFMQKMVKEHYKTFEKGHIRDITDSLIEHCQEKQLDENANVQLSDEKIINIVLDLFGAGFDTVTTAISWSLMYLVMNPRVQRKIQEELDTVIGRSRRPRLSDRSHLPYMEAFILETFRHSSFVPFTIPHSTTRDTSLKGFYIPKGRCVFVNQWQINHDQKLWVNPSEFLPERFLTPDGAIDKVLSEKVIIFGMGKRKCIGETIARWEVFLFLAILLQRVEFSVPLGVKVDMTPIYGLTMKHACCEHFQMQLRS
ASSAY_METRIC: Ki (µM)

Solved entries:
Need Ki, item `C#Cc1ccc2c(C(F)(F)F)cc(=O)oc2c1`
16.8

Repeat for the following compound: `C#Cc1ccc2cc(-c3ccccc3)c(=O)oc2c1`
0.38

Repeat for the following compound: `C#Cc1ccc2c(C)c(-c3ccccc3)c(=O)oc2c1`
5.16

Repeat for the following compound: `C#Cc1ccc2c(C)cc(=O)oc2c1`
38.6

(I) C#Cc1cc2oc(=O)ccc2cc1OC
(II) C#Cc1ccc2c(C)c(C)c(=O)oc2c1C
Identify the entry with the larger Ki. Options: I and II Which one? Tell me its label.
I
